- assay_method_text: ATG_PBREM_CIS: Attagene CIS-FACTORIAL HepG2 Assay for human Phenobarbital-responsive Enhancer Module (PBREM) (AID 2282955)
- stated_conditions: HepG2 PBREM cis-reporter, Attagene multiplexed transcription; actives raise or lower the signal
- Experimental: ATG_CIS is a cell-based, multiplexed-readout assay that uses HepG2, a human liver cell line, with measurements taken at 24 hours after chemical dosing in a 24-well plate.ATG_PBREM_CIS is one of 52 assay component(s) measured or calculated from the ATG_CIS assay. […] This assay endpoint, ATG_PBREM_CIS, was analyzed with bidirectional fitting relative to DMSO as the negative control and baseline of activity. […]
The source made the active and inactive calls. How the source made its calls: active means hit-call score of the fitted dose curve at least 0.9, where 1 is the maximum; inactive means score below 0.9.
Could you please pick one outcome from this set? active, inactive

Some entries whose results are on file:
>>> df
                                   compound  label_value
0                  C/C=C(\C)C(=O)OCC/C=C\CC     inactive
1                             CC/C=C\CCCCCO     inactive
2         CCC(C)NC(N)=O (centres undefined)     inactive
3                     CCO[Si](CCCN)(OCC)OCC     inactive
4           CCCCCCOC(=O)CCCCCCCC(=O)OCCCCCC     inactive
5                           Oc1cccc2ccccc12     inactive
6  CC1=C(CC(=O)O)c2cc(F)ccc2/C1=C\c1ccc(S(C)=O)cc1 (centres undefined)       active
7                       Cc1ccccc1S(N)(=O)=O     inactive

Ask | Can you look up the reported call for Oc1ccc(Oc2ccccc2)cc1 for me?
Reply | inactive

Ask | Can you look up the reported call for CC/C=C\CC1=C(C)CCC1=O for me?
Reply | inactive

Ask | Can you look up the reported call for CCC(=O)OCc1ccc(OC)cc1 for me?
Reply | inactive

Ask | Can you look up the reported call for Sc1nc2ccccc2s1 for me?
Reply | inactive

Ask | Can you look up the reported call for O=C(C(=O)c1ccccc1)c1ccccc1 for me?
Reply | inactive

Ask | Can you look up the reported call for O=C(O)/C=C\C(=O)O for me?
Reply | inactive

---

- assay_method_text: TOX21_p53_BLA_p2_viability: Viability Assessment in the Tox21 HCT-116 p53 Agonism Beta-lactamase Assay, Phase 2 (AID 2283591);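 further: compound exposure lasted 16 h at 37 °C; actives lower the ATP signal meaning cytotoxicity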
Records with an inconclusive call do not appear. The source made the active and inactive calls. Rule for the calls: active = hit-call score of the fitted dose curve at least 0.9, where 1 is the maximum; inconclusive = response in the unintended direction; inactive = score below 0.9.
Could you please pick one outcome from this set? active, inactive

Some entries whose results are on file:
molecule	label_value
Oc1ccc(Oc2ccccc2)cc1	inactive
NC(=O)N[C@@H](CCC(=O)O)C(=O)O	inactive

Now turn to the next molecule.
Ask | Can you look up the reported call for CCCCCCCCCOC(=O)c1ccccc1C(=O)OCCCCCCCCC for me?
Reply | inactive

---

- assay_method_text: TOX21_p53_BLA_p4_viability: Viability Assessment in the Tox21 HCT-116 p53 Agonism Beta-lactamase Assay, Phase 4 (AID 2283597);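 further: hits lower the luminescence signal meaning cytotoxicity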
Inconclusive results are not listed. The source made the active and inactive calls. Rule for the calls: active = hit-call score of the fitted dose curve at least 0.9, where 1 is the maximum; inconclusive = response in the unintended direction; inactive = score below 0.9.
Could you please pick one outcome from this set? 1 for active, 0 for inactive

Some entries whose results are on file:
In [3]: df
Out[3]:
                         structure_notation  label_value
0                   O=C(c1ccccc1O)c1ccccc1O            0
1               O=C(Nc1ccc(Cl)c(Cl)c1)C1CC1            0
2                       CCCCCCCCCCCCCCN(C)C            0
3               O=C(CC(=O)C(F)(F)F)c1ccccc1            0
4  CC(C)=CCOc1ccc(/C=C/C(=O)c2ccc(OCC=C(C)C)cc2OCC(=O)O)cc1            1
5   CN(C(=O)C(Cl)Cl)c1ccc(OC(=O)c2ccco2)cc1            0

Now turn to the next molecule.
Ask | Can you look up the reported call for CC/C=C\CCCCCO for me?
Reply | 0

Measured values drawn from PubChem BioAssay (EPA / NIEHS) for this set.
